molecular target: EGFR(D770_N771insSVD) expressing Ba/F3 stable cell line (Homo sapiens, UniProt P00533, DUP768-770, cells depend on it); test: Cellular proliferation (Alamar Blue) assay, EGFR D770_N771insSVD Ba/F3; type: cell-based; details: 72 hr, read-out: D770 IC50
Sequence (P00533 with tags, fused parts or gaps DUP768-770): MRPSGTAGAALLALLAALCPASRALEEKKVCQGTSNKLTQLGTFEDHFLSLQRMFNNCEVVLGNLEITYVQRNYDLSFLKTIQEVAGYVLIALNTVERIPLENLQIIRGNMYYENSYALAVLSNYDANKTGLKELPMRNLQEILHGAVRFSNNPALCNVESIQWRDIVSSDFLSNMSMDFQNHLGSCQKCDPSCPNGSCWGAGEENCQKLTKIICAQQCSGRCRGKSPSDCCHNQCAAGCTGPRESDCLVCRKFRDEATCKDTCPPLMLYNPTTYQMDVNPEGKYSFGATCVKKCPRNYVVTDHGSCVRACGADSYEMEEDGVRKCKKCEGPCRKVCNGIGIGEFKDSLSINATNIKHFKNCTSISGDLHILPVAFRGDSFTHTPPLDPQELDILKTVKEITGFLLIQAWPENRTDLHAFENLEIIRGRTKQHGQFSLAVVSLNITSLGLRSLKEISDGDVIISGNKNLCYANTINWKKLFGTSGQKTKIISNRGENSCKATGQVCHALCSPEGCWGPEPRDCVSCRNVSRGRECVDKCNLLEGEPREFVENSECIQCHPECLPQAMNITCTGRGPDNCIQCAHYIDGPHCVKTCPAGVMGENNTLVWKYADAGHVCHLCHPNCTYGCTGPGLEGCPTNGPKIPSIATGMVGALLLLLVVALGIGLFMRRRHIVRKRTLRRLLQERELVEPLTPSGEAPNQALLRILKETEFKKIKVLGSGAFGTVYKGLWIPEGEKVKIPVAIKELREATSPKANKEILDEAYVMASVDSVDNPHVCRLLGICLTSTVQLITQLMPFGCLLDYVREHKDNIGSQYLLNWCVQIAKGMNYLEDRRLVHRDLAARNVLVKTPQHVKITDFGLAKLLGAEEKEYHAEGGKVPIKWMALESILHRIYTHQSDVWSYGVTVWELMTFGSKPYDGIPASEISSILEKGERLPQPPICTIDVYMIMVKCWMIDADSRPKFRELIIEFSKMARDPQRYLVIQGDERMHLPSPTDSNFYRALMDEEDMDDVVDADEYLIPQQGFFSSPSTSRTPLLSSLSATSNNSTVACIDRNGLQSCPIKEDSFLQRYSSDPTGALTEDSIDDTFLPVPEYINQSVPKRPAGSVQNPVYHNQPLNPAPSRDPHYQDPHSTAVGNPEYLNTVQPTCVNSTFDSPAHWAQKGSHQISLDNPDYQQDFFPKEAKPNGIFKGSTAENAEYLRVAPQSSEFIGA

| molecular-string | result-operator | GI50, nM |
| --- | --- | --- |
| C=CC(=O)Nc1ccc(F)c(Nc2nc(Nc3csc(C)c3)ncc2-c2ccc(C(F)(F)F)cc2)c1 | = | 916 |
| C=CC(=O)Nc1ccc(-c2ccccc2)c(Nc2nc(Nc3cnn(C)c3)ncc2Cl)c1 | > | 10000 |
| C=CC(=O)Nc1cccc(Oc2nc(Nc3cnn(C)c3)ncc2-c2ccc(OC(F)F)nc2)c1 | = | 108 |
| Cn1cc(Nc2ncc(-c3ccc(C(F)(F)F)cc3)c(Nc3cc(NC(=O)CCl)ccc3F)n2)cn1 | = | 1420 |
| CN(C)C/C=C/C(=O)Nc1ccc(Cl)c(Nc2nc(Nc3cnn(C)c3)ncc2Cl)c1 | = | 9480 |
| C=CC(=O)Nc1cccc(Oc2nc(Nc3cnn(C)c3)ncc2-c2cncc(C)c2)c1 | = | 320 |
| C=CC(=O)Nc1ccc(F)c(Nc2nc(Nc3cnn(C)c3)ncc2-c2ccn3ccnc3c2)c1 | = | 203 |
| C=CC(=O)Nc1ccc(F)c(Nc2nc(Nc3cnn(C)c3)ncc2NC(=O)c2ccccc2)c1 | = | 1730 |
| C=CC(=O)Nc1ccc(F)c(Nc2nc(Nc3cnn(C)c3)ncc2-c2ccc(F)cc2)c1 | = | 60 |
| C=CC(=O)Nc1ccc(F)c(Nc2nc(Nc3cnn(C)c3)ncc2-c2ccc(OC(F)F)nc2)c1 | = | 35 |
| C=CC(=O)Nc1ccc(F)c(Nc2nc(Nc3cnn(C)c3)ncc2-c2cncc(Cl)c2)c1 | = | 35 |
| C=CC(=O)Nc1ccc(F)c(Nc2nc(Nc3cnn(C)c3)ncc2-c2ccnc(OC(F)F)c2)c1 | = | 107 |
| [2H]C([2H])=CC(=O)Nc1ccc(F)c(Nc2nc(Nc3cn(C)nc3Cl)ncc2-c2ccc(C(F)(F)F)cc2)c1 | = | 101 |
| C=CC(=O)Nc1ccc(F)c(Nc2nc(Nc3cnn(C)c3)ncc2-c2ccnc(C)c2)c1 | = | 256 |
| C=CC(=O)Nc1ccc(F)c(Nc2nc(Nc3cnn(C)c3)ncc2-c2ccccc2F)c1 | = | 103 |
| CN(C)C/C=C/C(=O)Nc1ccc(F)c(Nc2nc(Nc3cnn(C)c3)ncc2C#Cc2ccccc2)c1 | = | 1850 |

Origin of measurements: patent US12686673B2
